Reported EC50 values for the following compounds.
- Assayed System: G-protein coupled estrogen receptor 1 (Homo sapiens)
- Sequence (Q99527 whole entry): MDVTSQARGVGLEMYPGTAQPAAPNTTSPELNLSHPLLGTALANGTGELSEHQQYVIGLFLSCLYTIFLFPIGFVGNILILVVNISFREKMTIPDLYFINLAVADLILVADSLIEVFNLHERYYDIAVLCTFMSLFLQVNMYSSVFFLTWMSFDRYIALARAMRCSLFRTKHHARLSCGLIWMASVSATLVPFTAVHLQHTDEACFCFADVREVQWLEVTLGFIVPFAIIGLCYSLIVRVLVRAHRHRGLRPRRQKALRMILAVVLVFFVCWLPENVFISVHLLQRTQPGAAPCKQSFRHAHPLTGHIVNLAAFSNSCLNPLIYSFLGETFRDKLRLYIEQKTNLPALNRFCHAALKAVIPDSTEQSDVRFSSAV
- Test: Agonist activity at GPER (unknown origin) expressed in human HL60 cells assessed as increase in cAMP accumulation in presence of IBMX after 15 mins by HTRF assay
- Format: functional, cell-based
Just the number please, in nM, no unit attached.

CCc1nc(NC(=O)c2[nH]c3ccc(Br)cc3c2Cl)sc1C; 480
O=C(Nc1ncc(Cc2ccc(F)cc2F)s1)c1[nH]c2ccccc2c1Cl; 1620

Continue with the next compound.
Query string: Reported EC50 for O=C(Nc1ncc(Cc2ccc(F)cc2)s1)c1cc2cc(F)ccc2[nH]1 : what is it?
Result string: 20
